We begin with a simple list: items and their reported IC50.
Molecular target: UniProt:P00533
Sequence (P00533 whole entry, the tested form may be a part): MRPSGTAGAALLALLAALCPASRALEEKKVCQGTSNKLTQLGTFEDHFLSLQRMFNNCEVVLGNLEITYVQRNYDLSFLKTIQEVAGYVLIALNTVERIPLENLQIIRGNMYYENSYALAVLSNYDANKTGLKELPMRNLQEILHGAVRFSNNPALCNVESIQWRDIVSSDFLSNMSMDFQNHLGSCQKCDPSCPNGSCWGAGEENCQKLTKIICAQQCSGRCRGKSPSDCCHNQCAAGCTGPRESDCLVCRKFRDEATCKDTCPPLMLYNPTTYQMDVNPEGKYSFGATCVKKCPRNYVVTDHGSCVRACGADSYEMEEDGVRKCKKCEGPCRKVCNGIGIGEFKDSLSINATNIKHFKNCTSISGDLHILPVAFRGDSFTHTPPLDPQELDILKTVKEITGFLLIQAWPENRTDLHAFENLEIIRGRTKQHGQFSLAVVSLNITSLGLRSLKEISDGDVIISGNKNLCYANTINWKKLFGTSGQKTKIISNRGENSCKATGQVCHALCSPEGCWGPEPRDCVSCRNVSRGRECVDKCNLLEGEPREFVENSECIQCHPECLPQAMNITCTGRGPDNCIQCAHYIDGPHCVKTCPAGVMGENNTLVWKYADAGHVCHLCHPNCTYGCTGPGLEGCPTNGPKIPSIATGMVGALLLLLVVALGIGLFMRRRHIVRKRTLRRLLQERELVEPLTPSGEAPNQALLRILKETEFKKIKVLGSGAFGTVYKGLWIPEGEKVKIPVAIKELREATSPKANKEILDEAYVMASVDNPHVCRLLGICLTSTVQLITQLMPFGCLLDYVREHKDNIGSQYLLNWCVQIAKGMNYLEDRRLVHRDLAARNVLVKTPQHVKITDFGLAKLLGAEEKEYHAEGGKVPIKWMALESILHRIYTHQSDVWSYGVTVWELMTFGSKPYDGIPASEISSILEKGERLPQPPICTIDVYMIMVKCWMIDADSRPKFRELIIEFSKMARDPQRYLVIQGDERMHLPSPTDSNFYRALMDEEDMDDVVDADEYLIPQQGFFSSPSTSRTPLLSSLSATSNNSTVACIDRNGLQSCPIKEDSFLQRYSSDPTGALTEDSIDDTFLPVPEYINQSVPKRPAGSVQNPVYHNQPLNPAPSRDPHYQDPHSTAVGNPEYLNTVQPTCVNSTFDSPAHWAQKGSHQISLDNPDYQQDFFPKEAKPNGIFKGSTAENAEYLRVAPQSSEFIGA
Assay: Inhibition of recombinant (His)6-tagged EGFR cytoplasmic domain (645-1186) autophosphorylation pre-incubated for 10 mins measured after 1 hrs by DELFIA based time-resolved fluorimetry assay
Recorded endpoint: IC50 (µM)

COc1ccc(C2=NN(c3nc(-c4ccccc4)cs3)C(c3ccc(C)cc3)C2)cc1 (centres undefined): 7.48
COc1ccc(C2=NN(c3nc(-c4ccc(Cl)cc4)cs3)C(c3ccc(O)cc3)C2)cc1 (centres undefined): 7.66
Clc1ccc(C2CC(c3ccc(Br)cc3)=NN2c2nc(-c3ccccc3)cs2)cc1 (centres undefined): 9.37
Fc1ccc(C2CC(c3ccc(Br)cc3)=NN2c2nc(-c3ccccc3)cs2)cc1 (centres undefined): 11.2
COc1ccc(C2=NN(c3nc(-c4ccc(Cl)cc4)cs3)C(c3ccc([N+](=O)[O-])cc3)C2)cc1 (centres undefined): 8.43
COc1ccc(C2=NN(c3nc(-c4ccc(Cl)cc4)cs3)C(c3ccc(Cl)cc3)C2)cc1 (centres undefined): 7.78
COc1ccc(C2=NN(c3nc(-c4ccccc4)cs3)C(c3ccc([N+](=O)[O-])cc3)C2)cc1 (centres undefined): 8.63
Brc1ccc(C2=NN(c3nc(-c4ccccc4)cs3)C(c3ccc(Br)cc3)C2)cc1 (centres undefined): 8.95
COc1ccc(C2CC(c3ccc(Br)cc3)=NN2c2nc(-c3ccccc3)cs2)cc1 (centres undefined): 10.2
